measurement.target: T1, eSrtA displayed on ICY200 yeast as a C-terminal Aga2p fusion (Staphylococcus aureus, UniProt Q2FV99 60-206)
T1 construct: the whole entry is named here; also called Yeast displaying eSrtA; S. cerevisiae displaying eSrtA; not shown: Aga2p, yeast display anchor
T1 chain: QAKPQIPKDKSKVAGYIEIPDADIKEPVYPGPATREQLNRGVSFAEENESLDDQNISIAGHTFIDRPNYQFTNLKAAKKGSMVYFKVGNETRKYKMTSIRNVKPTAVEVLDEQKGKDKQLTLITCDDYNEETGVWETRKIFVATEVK
method.description: yeast-displayed eSrtA, 10 µM Btn-LAETGG against 100 nM to 1 mM LPETGG, cell biotinylation by flow cytometry
result.type: Ki

# lookup: Ki of LPETGG [non-biotinylated LPETGG peptide]
< 100 µM

From: patent US20160208233A1
